- Test system: SF-295 CNS
- Experimental protocol: NCI tumour cell line growth inhibition, 48 h; in the data active = GI50 below about 0.43 µM; inactive = the rest
Outcome field: choose from true (active), false (inactive)

>>> assigned_class("Cc1ccnc(Nc2ccc([N+](=O)[O-])c(NCCN3CCOCC3)n2)c1")
"true"
>>> assigned_class("CNCc1ccc(-c2[nH]c3cc(F)cc4c3c2CCNC4=O)cc1")
"false"
>>> assigned_class("O=C(N/N=C/c1ccc(F)cc1)c1ccc(C(F)(F)F)nc1Nc1cccc(C(F)(F)F)c1")
"false"
>>> assigned_class("N#CCC1(n2cc(-c3ncnc4[nH]ccc34)cn2)CN(C2CCN(C(=O)c3ccnc(C(F)(F)F)c3F)CC2)C1")
"false"

Consider the record given below.
query: Write down the call the test reported for this compound. Item: OCCCCC#Cc1ccccc1C#Cc1ccc(C(F)(F)F)cc1
result: false
